# Test Target: T1, human plasma Kallikrein (human, UniProt P03952 20-638, limits assumed)
# T1 construct: also called hPK; human PK
# T1 sequence (P03952 20-638 limits assumed): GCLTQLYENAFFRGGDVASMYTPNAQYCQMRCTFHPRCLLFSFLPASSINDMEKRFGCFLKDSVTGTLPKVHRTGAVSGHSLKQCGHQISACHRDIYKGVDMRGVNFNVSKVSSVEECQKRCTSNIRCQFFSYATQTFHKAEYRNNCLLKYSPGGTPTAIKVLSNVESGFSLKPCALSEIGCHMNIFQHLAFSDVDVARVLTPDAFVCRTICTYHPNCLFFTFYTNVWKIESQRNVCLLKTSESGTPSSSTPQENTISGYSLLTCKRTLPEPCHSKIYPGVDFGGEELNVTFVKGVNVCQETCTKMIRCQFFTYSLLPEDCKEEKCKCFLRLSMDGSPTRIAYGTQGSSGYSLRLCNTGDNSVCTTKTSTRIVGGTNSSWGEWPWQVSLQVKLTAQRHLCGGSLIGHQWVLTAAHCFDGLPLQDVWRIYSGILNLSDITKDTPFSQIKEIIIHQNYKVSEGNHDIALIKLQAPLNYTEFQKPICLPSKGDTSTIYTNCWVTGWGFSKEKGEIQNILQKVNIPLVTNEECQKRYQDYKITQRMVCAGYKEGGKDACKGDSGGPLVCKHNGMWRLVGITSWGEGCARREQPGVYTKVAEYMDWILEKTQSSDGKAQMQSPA
# Method Summary: enzyme inhibition assay
Numbered stars: 1 amine (or outer) side, 2 acyl side, 3 side chain; on linkers, the order of the positions; unused ones are H or OH. Bridge positions count the residues as written; N and C are the ends. Ends that are not written are not given here. TBMB = c1c(C[*:1])cc(C[*:3])cc1C[*:2]
Value Kind: Ki (nM)
Write down the numeric answer in nM and omit the unit.

A selection of reference data follows.
>>> value_observed("ACSWPYRCLHQDYCA (linker 2-8-14 via TBMB; not fully specified (N-terminus, C-terminus), also called PK109) [06-61]")
5.8
>>> value_observed("ACGVPYRCTHQEMCA (linker 2-8-14 via TBMB; not fully specified (N-terminus, C-terminus), also called PK111) [06-64 T]")
6.9

Exercise: I am curious: what Ki value has been reported for ACTWPARCTMQNWCA (linker 2-8-14 via TBMB, also called PK108) [06-A2*] ?
Key: 181

Exercise: Could you share which Ki value was measured for ACGGYNNCRAFSYCA (linker 2-8-14 via TBMB, also called PK115) [1F7] ?
Key: 2.2

// data source = patent US10800813
